All figures here come from patent US11078194B2.

Item-by-item account of solubility at 24 h
assay_overview: Solubility test of compounds of formula (I)-(IV) in 4 vehicles (water, SGF, FaSSIF, FeSSIF), HPLC
Format: physicochemical
protocol_conditions: SGF (FaSSGF), pH 1.8, simulated gastric fluid, thermodynamic from solid, vehicle SGF, 24 hours stirring; read-out: Solubility (μg/mL)_24 hours
Description: About 5 mg of the compound of formula (I) was weighed accurately, and placed in a sample bottle. 10 mL of acetonitrile was added. The mixture was sonicated for 5 minutes, cooled to room temperature, and well mixed. Two control sample solutions were prepared in parallel, and labeled as STD-1 and STD-2, respectively. […] The solubility of the compound of formula (I) and its salt in 4 vehicles with different pH were tested. […] The residual solid samples in the lower layer were detected by XRPD. […]
metric_name: solubility at 24 h (µg/mL)

* C[C@@H](Oc1ccc2[nH]nc(/C=C(\F)c3ccc(CNC4CCOCC4)nc3)c2c1)c1c(Cl)cncc1Cl.O=C(O)CC(O)(CC(=O)O)C(=O)O [compound of formula (III)] | 16.8
* C[C@@H](Oc1ccc2[nH]nc(/C=C(\F)c3ccc(CNC4CCOCC4)nc3)c2c1)c1c(Cl)cncc1Cl.O=C(O)C[C@H](O)C(=O)O [compound of formula (IV)] | 43.3

###

Item-by-item account of pH (4 hours)
assay_overview: Solubility test of compounds of formula (I)-(IV) in 4 vehicles (water, SGF, FaSSIF, FeSSIF), HPLC
Assay type: physicochemical
protocol_conditions: pH of sample in FeSSIF (vehicle pH 4.59), 4 hours
metric_name: pH (4 hours)

* C[C@@H](Oc1ccc2[nH]nc(/C=C(\F)c3ccc(CNC4CCOCC4)nc3)c2c1)c1c(Cl)cncc1Cl [compound of formula (II)] | 4.90
* C[C@@H](Oc1ccc2[nH]nc(/C=C(\F)c3ccc(CNC4CCOCC4)nc3)c2c1)c1c(Cl)cncc1Cl [compound of formula (I)] | 5.01
* C[C@@H](Oc1ccc2[nH]nc(/C=C(\F)c3ccc(CNC4CCOCC4)nc3)c2c1)c1c(Cl)cncc1Cl.O=C(O)CC(O)(CC(=O)O)C(=O)O [compound of formula (III)] | 4.96
* C[C@@H](Oc1ccc2[nH]nc(/C=C(\F)c3ccc(CNC4CCOCC4)nc3)c2c1)c1c(Cl)cncc1Cl.O=C(O)C[C@H](O)C(=O)O [compound of formula (IV)] | 4.95

###

Item-by-item account of pH (24 hours)
assay_overview: Solubility test of compounds of formula (I)-(IV) in 4 vehicles (water, SGF, FaSSIF, FeSSIF), HPLC
Assay type: physicochemical
protocol_conditions: pH of sample in SGF (vehicle pH 1.57), 24 hours
metric_name: pH (24 hours)

- C[C@@H](Oc1ccc2[nH]nc(/C=C(\F)c3ccc(CNC4CCOCC4)nc3)c2c1)c1c(Cl)cncc1Cl.O=C(O)CC(O)(CC(=O)O)C(=O)O: 2.08
- C[C@@H](Oc1ccc2[nH]nc(/C=C(\F)c3ccc(CNC4CCOCC4)nc3)c2c1)c1c(Cl)cncc1Cl.O=C(O)C[C@H](O)C(=O)O: 2.09
- C[C@@H](Oc1ccc2[nH]nc(/C=C(\F)c3ccc(CNC4CCOCC4)nc3)c2c1)c1c(Cl)cncc1Cl [compound of formula (I)]: 2.06
- C[C@@H](Oc1ccc2[nH]nc(/C=C(\F)c3ccc(CNC4CCOCC4)nc3)c2c1)c1c(Cl)cncc1Cl [compound of formula (II)]: 1.86

###

assay_overview: Solubility test of compounds of formula (I)-(IV) in 4 vehicles (water, SGF, FaSSIF, FeSSIF), HPLC
Type: physicochemical
protocol_conditions: pH of sample in H2O (vehicle pH 8.23), 4 hours
Item-by-item account of pH (4 hours)
metric_name: pH (4 hours)

- C[C@@H](Oc1ccc2[nH]nc(/C=C(\F)c3ccc(CNC4CCOCC4)nc3)c2c1)c1c(Cl)cncc1Cl [compound of formula (I)]: 8.33
- C[C@@H](Oc1ccc2[nH]nc(/C=C(\F)c3ccc(CNC4CCOCC4)nc3)c2c1)c1c(Cl)cncc1Cl [compound of formula (II)]: 2.68
- C[C@@H](Oc1ccc2[nH]nc(/C=C(\F)c3ccc(CNC4CCOCC4)nc3)c2c1)c1c(Cl)cncc1Cl.O=C(O)CC(O)(CC(=O)O)C(=O)O: 5.60
- C[C@@H](Oc1ccc2[nH]nc(/C=C(\F)c3ccc(CNC4CCOCC4)nc3)c2c1)c1c(Cl)cncc1Cl.O=C(O)C[C@H](O)C(=O)O: 6.93

###

Item-by-item account of solubility at 4 h
assay_overview: Solubility test of compounds of formula (I)-(IV) in 4 vehicles (water, SGF, FaSSIF, FeSSIF), HPLC
Type: physicochemical
protocol_conditions: water, pH 8.23, water, thermodynamic from solid, vehicle H2O, 4 hours stirring; read-out: Solubility (μg/mL)_4 hours
metric_name: solubility at 4 h

- C[C@@H](Oc1ccc2[nH]nc(/C=C(\F)c3ccc(CNC4CCOCC4)nc3)c2c1)c1c(Cl)cncc1Cl.O=C(O)C[C@H](O)C(=O)O [compound of formula (IV)]: 7.4 µg/mL
- C[C@@H](Oc1ccc2[nH]nc(/C=C(\F)c3ccc(CNC4CCOCC4)nc3)c2c1)c1c(Cl)cncc1Cl.O=C(O)CC(O)(CC(=O)O)C(=O)O [compound of formula (III)]: 99.5 µg/mL

###

Item-by-item account of pH (4 hours)
assay_overview: Solubility test of compounds of formula (I)-(IV) in 4 vehicles (water, SGF, FaSSIF, FeSSIF), HPLC
Format: physicochemical
protocol_conditions: pH of sample in SGF (vehicle pH 1.57), 4 hours
metric_name: pH (4 hours)

• C[C@@H](Oc1ccc2[nH]nc(/C=C(\F)c3ccc(CNC4CCOCC4)nc3)c2c1)c1c(Cl)cncc1Cl.O=C(O)C[C@H](O)C(=O)O = 2.09
• C[C@@H](Oc1ccc2[nH]nc(/C=C(\F)c3ccc(CNC4CCOCC4)nc3)c2c1)c1c(Cl)cncc1Cl.O=C(O)CC(O)(CC(=O)O)C(=O)O = 2.09
• C[C@@H](Oc1ccc2[nH]nc(/C=C(\F)c3ccc(CNC4CCOCC4)nc3)c2c1)c1c(Cl)cncc1Cl [compound of formula (I)] = 2.10
• C[C@@H](Oc1ccc2[nH]nc(/C=C(\F)c3ccc(CNC4CCOCC4)nc3)c2c1)c1c(Cl)cncc1Cl [compound of formula (II)] = 1.86

###

assay_overview: Solubility test of compounds of formula (I)-(IV) in 4 vehicles (water, SGF, FaSSIF, FeSSIF), HPLC
Type: physicochemical
protocol_conditions: pH of sample in FaSSIF (vehicle pH 6.62), 4 hours
Method: About 5 mg of the compound of formula (I) was weighed accurately, and placed in a sample bottle. 10 mL of acetonitrile was added. The mixture was sonicated for 5 minutes, cooled to room temperature, and well mixed. Two control sample solutions were prepared in parallel, and labeled as STD-1 and STD-2, respectively. […] The solubility of the compound of formula (I) and its salt in 4 vehicles with different pH were tested. […] The residual solid samples in the lower layer were detected by XRPD. […]
metric_name: pH (4 hours)

• C[C@@H](Oc1ccc2[nH]nc(/C=C(\F)c3ccc(CNC4CCOCC4)nc3)c2c1)c1c(Cl)cncc1Cl [compound of formula (II)] = 6.25
• C[C@@H](Oc1ccc2[nH]nc(/C=C(\F)c3ccc(CNC4CCOCC4)nc3)c2c1)c1c(Cl)cncc1Cl [compound of formula (I)] = 6.58
• C[C@@H](Oc1ccc2[nH]nc(/C=C(\F)c3ccc(CNC4CCOCC4)nc3)c2c1)c1c(Cl)cncc1Cl.O=C(O)C[C@H](O)C(=O)O [compound of formula (IV)] = 6.26
• C[C@@H](Oc1ccc2[nH]nc(/C=C(\F)c3ccc(CNC4CCOCC4)nc3)c2c1)c1c(Cl)cncc1Cl.O=C(O)CC(O)(CC(=O)O)C(=O)O [compound of formula (III)] = 6.43

###

assay_overview: Solubility test of compounds of formula (I)-(IV) in 4 vehicles (water, SGF, FaSSIF, FeSSIF), HPLC
Type: physicochemical
protocol_conditions: water, pH 8.23, water, thermodynamic from solid, vehicle H2O, 24 hours stirring; read-out: Solubility (μg/mL)_24 hours
metric_name: solubility at 24 h (µg/mL)

• C[C@@H](Oc1ccc2[nH]nc(/C=C(\F)c3ccc(CNC4CCOCC4)nc3)c2c1)c1c(Cl)cncc1Cl.O=C(O)C[C@H](O)C(=O)O = 19.3
• C[C@@H](Oc1ccc2[nH]nc(/C=C(\F)c3ccc(CNC4CCOCC4)nc3)c2c1)c1c(Cl)cncc1Cl.O=C(O)CC(O)(CC(=O)O)C(=O)O = 184
• C[C@@H](Oc1ccc2[nH]nc(/C=C(\F)c3ccc(CNC4CCOCC4)nc3)c2c1)c1c(Cl)cncc1Cl = 1540
